Molecular target: T1, Mcl-1, Q07820
T1 chain: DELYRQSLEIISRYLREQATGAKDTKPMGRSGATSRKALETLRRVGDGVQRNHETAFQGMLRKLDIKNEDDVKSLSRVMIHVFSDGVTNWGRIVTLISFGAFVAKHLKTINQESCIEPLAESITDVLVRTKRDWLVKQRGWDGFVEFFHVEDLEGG
Experiment: peptide SPOT array, c-Myc-tagged receptor at 1 uM or 100 nM, anti-c-Myc-Cy3
Definition: the class of an entry is the range in 0 (below 0.04), 1 (0.04 to below 0.1), 2 (0.1 or more) that contains its SPOT signal as a fraction of Bim BH3's signal on the same receptor and array.

Example entries and their recorded answers appear below.
TLLTPGYSVIIEKLAEGLDIQLKSPV [KDM1B]    0
FVGYNSTGAELRHWSDMLANPRRPIA [SYT1]    2
AFGLGDLPNLLGLVGDQLGDTERKRR [ADAMTS14]    1
LLDFFMVSILDSKLGDLLHKLQFVLT [PCNXL2]    1
TWEIECTSEMLKKLSSKVMTKVIKKK [TRANK1]    2

Query: Note: place this binder into its band. Item: TAGLRPGARLDRVCGQTLPSLRPEAA [SIPA1]
Response: 2

Query: // repeat for LFHLLEFCLLLNQFSRAVAAKWKDDV [RLN1] and report
Response: 0

Query: // repeat for HPRKESQVRQLAWVGDGVWVSIRLDS [SPAG9] and report
Response: 0

Query: // repeat for IVGGCVVGIADARFADFIRGMLKLIL [DIRC2] and report
Response: 2

Query: // repeat for DHTDGVVACADGLIGDLCTAFGKDVL [KPNB1] and report
Response: 0

Query: // repeat for PYLSKHRADRMRRLLDFLNQESFDLA [SMPD2] and report
Response: 2
